ASSAY_TARGET: ScMyo3
EXPERIMENT_NOTES: SPOT peptide array binding signal intensity (averaged, normalized) (arbitrary units (background-subtracted, floor 0; scale differs between SH3 domains)); higher = stronger binding of the SH3 domain to the peptide
REPORTED_ENDPOINT: SPOT peptide array binding signal intensity

INPUT: Kindly indicate its recorded SPOT peptide array binding signal intensity. Item: `KRRTSLFPWLHKPGI`
OUTPUT: 3

INPUT: Kindly indicate its recorded SPOT peptide array binding signal intensity. Item: `QDKEGIPPDQQRLIF`
OUTPUT: ≤ 0

INPUT: Kindly indicate its recorded SPOT peptide array binding signal intensity. Item: `VRTRRRPPPPPIPST`
OUTPUT: 851

INPUT: Kindly indicate its recorded SPOT peptide array binding signal intensity. Item: `VATSTSPKLPPRGKQ`
OUTPUT: ≤ 0
